Attribution: ChEMBL document CHEMBL1201862

Test system: SF-295
Assay: NCI tumour cell line growth inhibition, 48 h
Activity calls are given as the source filed them. Cut-off read from the data, not from the text of the source: active = GI50 up to about 1.1 µM and inactive = higher.
Give one outcome, nothing more. List: active, inactive

>>> cat("Fc1ccc(C2SCc3nc4ccccc4n32)cc1Cl (stereo not given)")
"inactive"
>>> cat("Cc1cnc2[nH]c(-c3cccc(F)c3)cc(=O)c2c1")
"active"

Exercise: Hi team, can someone confirm the assay call for CC(=O)c1ccc2c3c1O[C@H]1c4[nH]c5ccccc5c4C[C@@]4(O)[C@@H](C2)N(CC2CC2)CC[C@]314 ?
Key: inactive

Exercise: Hi team, can someone confirm the assay call for Cc1c(Cl)cccc1NC(=O)/C(Cl)=C(\Cl)C(=O)O ?
Key: inactive

Exercise: Hi team, can someone confirm the assay call for O=C1/C(=C/c2ccc(Cl)cc2)CSC/C1=C\c1ccc(Cl)cc1 ?
Key: inactive

###

System: U-251
Experiment: NCI tumour cell line growth inhibition, 48 h
Calls of active or inactive are those of the source. Rule as the data show it: active = GI50 up to about 1.1 µM and inactive = higher.
MEASURE: GI50

Some solved cases for reference:
>>> result_value("COc1cc2c(cc1OC)C1Cc3cc(OC)c(OC)cc3N1CC2 (stereo not given)")
"35.4 µM (inactive)"
>>> result_value("N#CCCN(c1ccc(/C=C2\\N=C(c3ccc(Cl)cc3)OC2=O)cc1)S(=O)(=O)c1ccccc1")
"> 100 µM (inactive)"
>>> result_value("N#CC1(C2CC(=O)N(c3ccccc3)C2=O)CCCCC1=O (stereo not given)")
"> 100 µM (inactive)"
>>> result_value("CC(C)(CO)CNc1cc(Cl)nc(N)n1")
"> 100 µM (inactive)"

Then this compound:
Tested on U-251: CCOC(=O)C(NC(=O)CC)(N1CCN(c2cc3c(cc2F)c(=O)c(C(=O)O)cn3C2CC2)CC1)C(F)(F)F (stereo not given) . Observed GI50: 92.9 µM (inactive)

###

Test system: EKVX
Experiment: NCI tumour cell line growth inhibition, 48 h
Activity calls are given as the source filed them. No stated cut-off is given here; in the data, active = GI50 up to about 1.1 µM and inactive = higher.
Give one outcome, nothing more. List: T = active, F = inactive

Solved cases (4 shown):
>>> cat("COc1ccccc1C(=O)c1c(N2CCCCC2)c(=O)c1=O")
"F"
>>> cat("Nc1nc2cc3nc(N)c(N)nc3cc2nc1N")
"F"
>>> cat("COC(=O)Cc1c(/C=C/C(C)(C)n2cnc(CCN3C(=O)CCC3=O)c2)[nH]c2ccccc12")
"F"
>>> cat("O=C1CCCN1CCC/N=c1/cc2n(-c3ccc(Cl)cc3)c3ccccc3nc-2cc1Nc1ccc(Cl)cc1")
"F"

Exercise: Hi team, can someone confirm the assay call for COc1cc(C(=O)NO)ccc1O ?
Key: F

Exercise: Hi team, can someone confirm the assay call for O=c1c2ccccc2[nH]c(=S)n1-c1ccc(Br)cc1 ?
Key: F

###

Tested on: NCI-H226
Assay: NCI tumour cell line growth inhibition, 48 h
Calls of active or inactive are those of the source. No stated cut-off is given here; in the data, active = GI50 up to about 1.1 µM and inactive = higher.
Give one outcome, nothing more. List: active, inactive

Solved cases (2 shown):
>>> cat("O=C(O)c1c2c(cc3c(=O)c4ccccc4[nH]c13)CCCC2")
"inactive"
>>> cat("O=C1c2ccccc2-c2nnc3c(c21)-c1ccccc1C3")
"inactive"

Exercise: Hi team, can someone confirm the assay call for CCCC(=O)Nc1cc(/C=C/C(=O)N2C[C@@H]3C[C@]34C2=CC(=O)c2[nH]cc(C)c24)n(C)c1 ?
Key: active

Exercise: Hi team, can someone confirm the assay call for CCOC1OC(=O)c2cc3ccc4c(c3c(-c3ccc5c(c3)OCO5)c21)OCO4 (stereo not given) ?
Key: inactive

Exercise: Hi team, can someone confirm the assay call for O=C1/C(=C/c2ccc(O)cc2)CCc2ccccc21 ?
Key: inactive

###

System: SK-MEL-5
Assay: NCI tumour cell line growth inhibition, 48 h
The source made the active and inactive calls. Cut-off read from the data, not from the text of the source: active = GI50 up to about 1.1 µM and inactive = higher.
Give one outcome, nothing more. List: true for active, false for inactive

Solved cases (2 shown):
>>> cat("c1ccc(NCCSc2nc3ccccc3s2)cc1")
"false"
>>> cat("S=C(/N=c1/sc(Nc2ccccc2)nc2sc3c(c12)CCCC3)Nc1ccccc1")
"false"

Exercise: Hi team, can someone confirm the assay call for CCNC(=O)O/N=C1\CCC2[C@@H]3CC=C4C[C@@H](OC5CCCCO5)CC[C@]4(C)C3CC[C@]12C (stereo not given in full) ?
Key: false

Exercise: Hi team, can someone confirm the assay call for N#CC(c1ccccc1)N1CCCN(C(C#N)c2ccccc2)C1c1ccccc1O (stereo not given) ?
Key: false

Exercise: Hi team, can someone confirm the assay call for Brc1ccccc1/C=N\C12CC3CC(CC(C3)C1)C2 ?
Key: false

Exercise: Hi team, can someone confirm the assay call for CC(=O)OCC1OC(N2C(c3ccccc3)=CC(c3ccccc3)C(C#N)=C2S)C(OC(C)=O)C(OC(C)=O)C1OC(C)=O (stereo not given) ?
Key: false

###

Test system: PC-3
Assay: NCI tumour cell line growth inhibition, 48 h
The source made the active and inactive calls. Cut-off read from the data, not from the text of the source: active = GI50 up to about 1.1 µM and inactive = higher.
MEASURE: GI50

>>> result_value("CC1=NN(c2nc(N)nc(CO)n2)C(C)(C)C1")
"> 100 µM (inactive)"

Entry CCCC[C@@H]1CCN2C[C@@H](O)[C@@H](O)[C@H]2[C@@H]1O — recorded GI50 = > 100 µM (inactive)

Entry CC(=O)c1ccc2c3c1O[C@H]1c4[nH]c5ccccc5c4C[C@@]4(O)[C@@H](C2)N(CC2CC2)CC[C@]314 — recorded GI50 = 10.1 µM (inactive)

Entry Brc1ccc(-c2[nH]c3ccccc3c2/N=N\c2ccccc2)cc1 — recorded GI50 = 16.1 µM (inactive)

Entry O=C1/C(=C/c2ccc(Cl)cc2)CSC/C1=C\c1ccc(Cl)cc1 — recorded GI50 = 3.52 µM (inactive)

Entry COc1ccc(CNC(=O)[C@H](Cc2ccc(O)cn2)NC(C)=O)cc1 — recorded GI50 = > 100 µM (inactive)

Entry Cc1nc2ccc(S(=O)(=O)Nc3ccccc3)cc2c(=O)n1NC(=O)CNc1ccccc1 — recorded GI50 = > 100 µM (inactive)

Entry CC1(C)N=c2c(ncn2CCCO)=C(C(N)=O)N1 — recorded GI50 = > 100 µM (inactive)

###

Tested on: M19-MEL
Assay: NCI tumour cell line growth inhibition, 48 h
Active and inactive are the calls of the source. Rule as the data show it: active = GI50 up to about 1.1 µM and inactive = higher.
MEASURE: GI50

>>> result_value("Cc1c(C2Cc3ccccc3N2)c2ccccc2n1C (configuration not stated)")
"> 100 µM (inactive)"

Entry Cc1c(-c2ccccc2)c(=O)oc2ccc(Cl)cc12 — recorded GI50 = > 100 µM (inactive)

Entry Cc1ccc2c(c1)SC(c1cc3c(cc1Br)OCO3)S2 (configuration not stated) — recorded GI50 = 28.6 µM (inactive)

Entry N/N=C(\CCN1CCCC1)CC(c1ccccc1)c1c(O)c2ccccc2oc1=O (configuration not stated) — recorded GI50 = > 100 µM (inactive)

Entry Cc1cccc(C)c1NC(=O)CCc1nnc2s/c(=C\c3ccc(Cl)cc3)c(=O)n12 — recorded GI50 = > 100 µM (inactive)

###

Tested on: OVCAR-3
Assay: NCI tumour cell line growth inhibition, 48 h
Calls of active or inactive are those of the source. No stated cut-off is given here; in the data, active = GI50 up to about 1.1 µM and inactive = higher. *1 amine or outer side, *2 acyl side, *3 side chain or, on linkers, in order; H or OH if unused. Where a SMILES comes first, the peptide text is derived from it. [ ]: non-standard residue; d: D form. The star is where a group is joined. ξ: configuration not given here. X53 = CC(C)C[C@H](N[*:1])C1=N[C@H](C(=O)[*:2])CS1; Ile(3ξ) = CCC(C)[C@H](N)C(=O)O; Allyl(1,1-Me2) = C=CC(C)(C)*
MEASURE: GI50

>>> result_value("C=CC(C)(C)OC[C@@H]1NC(=O)CNC(=O)[C@@H]2CCCN2C(=O)[C@H](C(C)CC)NC(=O)[C@@H]2CSC(=N2)[C@H](CC(C)C)NC1=O (some centres undefined) (cyclo(GS(Allyl(1,1-Me2))[X53][Ile(3ξ)]P))")
"47.9 µM (inactive)"
>>> result_value("COc1ccc(NC(C)=O)cc1N1C(=O)/C(=C\\c2ccccc2)SC1c1cc(OC)c(OC)c(OC)c1 (centres undefined)")
"29.4 µM (inactive)"
>>> result_value("CCCCN1C(=O)N(c2ccc(OCC)cc2)C2N(CCCC)C1C(C)(C)C2(C)C (centres undefined)")
"15.7 µM (inactive)"
>>> result_value("CCOC(=O)c1c(/C=N\\Nc2ccccc2)nc2ccccc2c1-c1ccccc1")
"31.7 µM (inactive)"
>>> result_value("COC(=O)C(Cc1ccccc1)NC(=O)Cn1ccnc1[N+](=O)[O-] (centres undefined)")
"> 10 µM (inactive)"
>>> result_value("COc1ccc(CNC(=O)[C@H](Cc2ccc(O)cn2)NC(C)=O)cc1")
"> 100 µM (inactive)"

Entry CC(=O)NC(Cc1ccc(O)cc1)C(=O)O (centres undefined) — recorded GI50 = > 100 µM (inactive)

Entry CN(C)C1C(O)=C(C(=O)NCN2CCCC2)C(=O)C2(O)C(O)=C3C(=O)c4c(O)cccc4C(C)(O)C3CC12 (centres undefined) — recorded GI50 = > 100 µM (inactive)

Entry CC(C)=CC(=O)c1[nH]c2ccccc2c1CC(=O)NCCc1cn(C(c2ccccc2)(c2ccccc2)c2ccccc2)cn1 — recorded GI50 = 3.84 µM (inactive)

Entry COc1c(Sc2c(SCSc3cnc4ccccc4c3Sc3cnc4ccccc4c3OC)cnc3ccccc23)cnc2ccccc12 — recorded GI50 = > 100 µM (inactive)

Entry NC1CC(=O)c2c(I)sc(I)c21 (centres undefined) — recorded GI50 = 20 µM (inactive)

Entry Cc1cc(=O)oc2c(C)c3oc(CBr)cc3cc12 — recorded GI50 = 35.7 µM (inactive)

Entry O=C1/C(=C/c2ccc(O)cc2)CCc2ccccc21 — recorded GI50 = 23.3 µM (inactive)

Entry C/C(=N\NC(=S)NCCNC(=S)N/N=C(\C)c1ccccn1)c1ccccn1 — recorded GI50 = 2.74 µM (inactive)

Entry C/C(CC(=O)Nc1ccccc1)=N\NC(N)=S — recorded GI50 = > 100 µM (inactive)

Entry C/C=C\C(CC(=O)NCC(=O)c1c[nH]c2ccccc12)CC(=O)OC (centres undefined) — recorded GI50 = > 100 µM (inactive)

Entry CN(C)c1n/c(=N/c2ccc3ccccc3c2)ss1 — recorded GI50 = 12.2 µM (inactive)

Entry COc1ccc(Cn2c3c(cc(OC(C)=O)c2=O)Cc2ccccc2-3)cc1 — recorded GI50 = 10.7 µM (inactive)

Entry COc1cc2c(cc1O)NC(=O)[C@@H]1CCCN1C2=O — recorded GI50 = > 100 µM (inactive)
